system: RARb:RXRa (NR concentration 270 nM, RXRa partner concentration 90 nM); test: PBM binding z-score (relative to random genomic background probes); higher = stronger binding; sequences stand for … in GC…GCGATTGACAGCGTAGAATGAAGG
# maps each entry to its PBM binding z-score
Reported metric: PBM binding z-score

>>> measured_value("CAGCCTGGGTCAGGGCCAGTATAGGAGGAACGTT")
2.83
>>> measured_value("TCATTTAGGTAAAAGGTGAAAGTCGGTGTGGTAA")
2.05
>>> measured_value("CAATCTAGGTCAAGGTCAAAGTCGGTTTGTGCCA")
4.9
>>> measured_value("TCTGCTAGGTCAACGACGGTCAGCTAATCTGCTA")
4.13
>>> measured_value("TGAATGATGTTAAAGATCAGGGAACGTGGCGTCG")
-0.0162
>>> measured_value("AATAGAGGGTCATCGTAGGCCAGAGTACGCACAG")
4.25
>>> measured_value("GCGACTGTGGCAAAGCAGGTTACCATAAGGTTGG")
-0.0264
>>> measured_value("ATACCATGGTGATCGTGAGGTCGTTGATACTAAC")
0.235
>>> measured_value("TAGCCTACGTCATGGGCCAGTATACCACGCGAAC")
-0.332
>>> measured_value("CCGATTGGGGCAAAGGTTACCATACTCAGTACGA")
2.31
>>> measured_value("TCGAGTCGGTTAGGGGCATTCAGAATGGCGTCGA")
0.501
>>> measured_value("AGGATGAGGTTACCAAAGATCAGGGAAACGCTTG")
2.12
>>> measured_value("ACTAGCAGGCCAAGTATGGGTCACTCAAACAAAG")
1.58
>>> measured_value("CGTCCAAGGTCAAAGGAGGTCAGTGAAGACAGAT")
5.6
>>> measured_value("TCTTGTAGATCAACAGGAGGTTAAGGAAGATCGA")
0.516
>>> measured_value("GGAACGAGGGCAAAGTCGATAGCATCTGTCGACG")
1.87
>>> measured_value("TCATATTGGTAAAAGGTGAAAGTCGGTGTGGTAA")
2.01
>>> measured_value("CGAACTAGGTAATTGACAGGACAGTGAATAGTAA")
-0.185
>>> measured_value("TCATATAGGTAAAGGTGAGAGTCGAACGATATGA")
1.69
>>> measured_value("TGAATGAGTTTATAAGATCAGGGAACGTTGCAAA")
-0.00933
>>> measured_value("TCTTGTAGATCCAGCAGGTTAAGAAAGCCTGAGT")
0.133
>>> measured_value("GCTACAGGGTCAAGGCCAGAGTACGCGTATTGAT")
4.59
>>> measured_value("CAGACTGGGGCAGAAAGGTTACCATACCATCCGG")
2.04
>>> measured_value("TCATGTAGATCAACAGGAGGTTAAGAAAGATCGA")
0.499
>>> measured_value("ATCTCTAGGTAAGACTCAGTTCAGCGAAGAACGC")
0.277
>>> measured_value("TAGCCTAGGTCATGCGGGCCGGTATAGTGTCGGC")
3.61
